Quick reference: melting point of the listed items.

Molecule	Property Measured	Recorded Measurement
CCCCc1oc2ccccc2c1/C(C)=C/C(=O)NCCc1ccc(OC)c(OC)c1	melting point	95 to 99 °C

Quick one: melting point of CCN(CC)C(=O)/C=C(\C)c1ccc(OC(C)c2ccccc2)c2oc(C(C)=O)cc12 (stereo not drawn) ?
70.8 to 73 °C

I have this molecule here, "COc1cccc2c(NC(=O)/C=C/c3ccccc3)c(C(C)=O)oc12" , and I need its recorded melting point.
160.6 to 161.1 °C

Please report the recorded melting point for "COc1cccc(NC(=O)/C=C(\C)c2cc3c(Br)ccc(OCCN(C)C)c3o2)c1" .
176.4 to 181.5 °C

Which melting point value is on record for "CCOC(=O)c1ccc(OC)c(NC(=O)/C=C(\C)c2ccc3oc(C(C)=O)c(N)c3c2)c1" ?
189 to 193 °C

Dear colleague, I am looking for the recorded melting point of the following molecule: "C/C(O)=C(\C#N)C(=O)Nc1c(C(N)=O)oc2ccccc12"
265 °C

Look at this molecule and give its reported melting point. "COc1ccc2oc(-c3csc(N)n3)c(-c3ccc(Cl)cc3)c2c1"
196 to 197.7 °C

Report melting point for "CCOC(=O)/C=C(\C)c1ccc2oc(/C(Cl)=C/C=O)cc2c1" please.
99.5 to 101 °C

So what's the measured melting point for this one? "Cc1oc2ccc(Br)cc2c1/C(Cl)=C/C=O"
99.8 to 104 °C

---

Property Measured: melting point

Smiles Entry	melting point
COc1cccc(NC(=O)/C=C/C=C(\Cl)c2cc3cc(Br)ccc3o2)c1	204.3 to 207.1 °C
COc1ccc2oc(-c3csc(-c4ccccc4)n3)c(-c3ccc(Cl)cc3)c2c1	151.3 to 153.3 °C
COc1cccc2c(NC(=O)CC#N)c(C(=O)c3ccc(Br)cc3)oc12	312.2 to 348.6 °C
COc1cccc2c(NC(C)=O)c(C(C)=O)oc12	206.6 to 209.5 °C
CC(=O)c1cc2cc(/C(C)=C/C(=O)O)ccc2o1	220.4 to 223.5 °C

Field request: melting point | item: "COc1ccc(CCNC(=O)/C=C/C=C(\Cl)c2cc3cccc(OC)c3o2)cc1OC"
151.4 to 153.3 °C

Using the record for "COc1ccc(NC(=O)/C=C(\C)c2cc3cccc(OC(c4ccccc4)c4ccccc4)c3o2)cc1OC" , report its melting point.
93.9 to 94.5 °C

# input compound: "CCN(CC)C(=O)/C=C(\C)c1cc(Cl)cc2cc(C(C)=O)oc12" ; wanted: its melting point
116 to 117.5 °C

Name the reported melting point value associated with the compound "CCOC(=O)c1oc2ccc(Br)cc2c1NC(=O)c1cnoc1C"
170 to 172.8 °C

---

# melting point per record follows

Molecule	Recorded Measurement
CCNS(=O)(=O)c1ccc(OCCCC(=O)OCC)c2oc(C(C)NC(=O)c3cnoc3C)cc12 (centres unmarked)	88.1 to 90 °C
CCN(CC)C(=O)/C=C(\C)c1ccc(OCCCSc2ccc(Cl)cc2)c2oc(C(C)=O)cc12	110.5 to 113.5 °C
CCc1c(/C(C)=C/C(=O)NCCc2ccc(OC)c(OC)c2)oc2ccccc12	131 to 135 °C

Query (molecule): "COc1ccc(NC(=O)/C=C/C=C(\Cl)c2cc3cccc(OCCCCl)c3o2)cc1OC" ; field requested: melting point
167.5 to 169 °C

melting point lookup needed for "C/C(O)=C(\C#N)C(=O)Nc1c(C#N)oc2ccccc12" , thanks.
165.8 to 167.2 °C

What value of melting point has been reported for the following molecule? "COc1cccc2cc(/C(Cl)=C/C=C/C#N)oc12"
98.9 to 101.2 °C

Requested read-out: melting point. Entry: "COc1cccc2c(NC(=O)c3cnoc3C)c(C(=O)c3ccc(Cl)cc3)oc12"
237.4 to 239.5 °C

Fill blank: measured melting point of the molecule "COc1ccc(CCNC(=O)/C=C(\C)c2ccc3oc(C(C)=O)c(N)c3c2)cc1OC" is ____.
168 to 173 °C
